System: HeLa
Assay: MTS proliferation assay
Assay type: cell-based, human
Details: 72 h read-out
Method: The assay is performed in 96 well tissue culture plates. The cells (range: 1.5*10^3-10^4) are seeded out in 80 μl complete medium 24 h prior to compound treatment. The test compounds are added in 20 μl complete medium containing max 5% DMSO. The final compound concentrations in the assays are in the range of 0.001 μM-10 μM. The assay plates are incubated for 72 h at culture conditions. […] Subsequently, the plates are shortly shaked and absorption measured with a microplate-reader at 492 nm. […]
readout-type: IC50

Name the recorded IC50 of the item `COc1ccc(Nc2cncc(-c3cccc(NC(=O)c4ccccc4)c3)c2)cc1OC` in your answer.
> 1 µM

Return IC50 (reported value) for this compound: `O=C(Nc1cccc(-c2cncc(Nc3ccc(OCc4ccccc4)cc3)c2)c1)c1ccccc1`
> 1 µM

State, in one line, measured IC50 of `COc1ccc(Nc2cncc(-c3cccc(NC(=O)c4ccccc4)c3)c2)c(OC)c1`
> 1 µM

Identify the reported IC50 for the following entry. `COc1ccc(Nc2cncc(-c3cccc(NC(=O)c4ccncc4)c3)c2)cc1`
0.01 to 0.1 µM

Return IC50 for the following compound: `COc1ccc(Nc2cncc(-c3cccc(NC(=O)c4ccccn4)c3)c2)cc1`
0.01 to 0.1 µM

Specify reported IC50 for the compound shown: `COc1ccc(Nc2cncc(-c3cccc(NC(=O)c4cccnc4Cl)c3)c2)cc1`
0.01 to 0.1 µM

Tell me its IC50 given `CCOc1ccccc1C(=O)Nc1cccc(-c2cncc(Nc3ccc(OC)cc3)c2)c1` as the entry.
0.1 to 1 µM

Complete the entry with IC50 for `COc1ccc(Nc2cncc(-c3cccc(NC(=O)c4cnccn4)c3)c2)cc1`
0.01 to 0.1 µM
